These entries and their values trace back to patent US11401254B2.

test: Log P by HPLC on reversed phase columns (EEC directive 79/831 Annex V.A8); type: physicochemical; conditions: method [a]: LC-UV, acidic range, 0.1% formic acid in water and acetonitrile as eluent
Measured LogP, listed per entry.

Example entries begin here.
>>> result("CCOC(=O)C(CCSC)NC(=O)c1sc(Cl)c(Cl)c1C (stereo not shown) [I.47]")
"3.94^[a]"
>>> result("CCOC(=O)C(CC(C)C)NC(=O)c1sc(Br)c(Br)c1C (stereo not shown) [I.68]")
"4.66^[a]"
>>> result("COC(=O)[C@@H](CCSC)NC(=O)c1sc(Cl)c(Cl)c1C [I.36]")
"3.55^[a]"
>>> result("CCOC(=O)[C@H](Cc1ccccc1)NC(=O)c1sc(Cl)c(Cl)c1C [I.26]")
"4.46^[a]"
>>> result("CCOC(=O)C(CC(C)C)NC(=O)c1sc(Br)c(Br)c1I (stereo not shown) [VIa.15]")
"5.01^[a]"
>>> result("O=C(O)CNC(=O)c1sc(Cl)c(Cl)c1I [VIa.13]")
"2.21^[a]"
>>> result("CCOC(=O)C(C)NC(=O)c1sc(Br)c(Br)c1C (stereo not shown) [I.21]")
"3.39^[a]"
>>> result("CCOC(=O)C(CCSC)NC(=O)c1sc(Cl)c(Cl)c1I (stereo not shown) [VIa.23]")
"4.40^[a]"

Q) Please list LogP recorded for the molecule CCCCOC(=O)C(NC(=O)c1sc(Br)c(Br)c1C)C(C)C (stereo not shown) [I.55]
A) 5.25^[a]

Q) Please list LogP recorded for the molecule CCOC(=O)C(NC(=O)c1sc(Br)c(Br)c1C)C(C)C (stereo not shown) [I.62]
A) 4.37^[a]
